Test system: Atrial natriuretic peptide receptor 1 (Homo sapiens)
Assay method text: Natriuretic polypeptide receptor (hNpr1) antagonism - Pilot CMLD screen (AID 1347052);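 further: HEK293 cells with hNpr1 stimulated by hNppA peptide at 0.1 nM; cGMP level read as GloSensor luciferase luminescence after agonist stimulation; on the % scale 0 is the no-effect control and ±100 the full control effect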
Run parameters: HEK293 hNpr1 GloSensor cGMP luminescence, ANP-stimulated; series mostly up to 9.22 µM
Results filed as inconclusive are left out. Active and inactive are the calls of the source. The call rests on the fitted dose curve.
Assay metric: outcome

>>> recorded_result("Cc1ccccc1Nc1oc(-c2ccccc2)nc1C=Cc1ccccc1")
"inactive"
>>> recorded_result("CC(C)CON=C1C[C@@H](O)[C@@H](O)[C@@H]2[C@H]3C(=O)N(c4ccc(F)cc4F)C(=O)[C@@H]3CC[C@H]12")
"inactive"
>>> recorded_result("COc1cc(O)c(C(=O)C=Cc2ccccc2)c(O)c1")
"inactive"
>>> recorded_result("CC(C)=CCN1C(=O)[C@]2(O[C@H](C)CC3=CCCC32)c2c(Br)cccc21 (some centres not stated)")
"inactive"
>>> recorded_result("Cc1cc2c(nc1C)CCCN2CC(O)CN1CCCc2nc(-c3ccc(Br)cc3)ccc21 (configuration not stated)")
"inactive"

Recorded outcome of `Cc1cc(C)c(S(=O)(=O)OC[C@H]2C=CC[C@@H](CCC[C@H]3O[C@H](C(=O)OC(C)C)CC[C@@H]3C)O2)c(C)c1` , please. inactive

What do you get for `CO[C@@H]1c2cc(F)ccc2C(=CCCOC(=O)CC=Cc2ccccc2)[C@H]1C` ? inactive

Could you do the same for `CC(CCN1CCCCc2nc(C)c(C)cc21)=NOC[C@@H](O)[C@H]1O[C@@H]2OC(C)(C)O[C@H]2[C@@H]1O` , please? inactive

Cool, now `C[C@@H]1C=CCCO[C@]12C(=O)N(Cc1ccc(F)cc1)c1cccc(Br)c12` inactive

Thanks! And COC(=O)C1=C(C)N(CC#C[Si](C)(C)C)C(=O)N(C(C)=O)C1c1ccccc1 (configuration not stated) ? inactive

What do we get for `COC(=O)CC=C[C@@H](C)[C@@H](C=NOC[C@@H](C)[C@H](OCc1ccccc1)C(C)C)NS(=O)(=O)c1ccc(C)cc1` ? inactive

Now consider `COc1cccc([C@@H]2Oc3ccc(OC)cc3C(=O)[C@@H]2OC(=O)Nc2cc(OC)c(OC)c(OC)c2)c1` . inactive

Same question, `C=CCN1c2ccccc2[C@]23C[C@@H](C(=O)OC)N(C(=O)Nc4ccccc4F)C2=NC(C(=O)OC)=C(C(=O)OC)[C@H]13` this time inactive

----------
Kindly supply the reported activity change, negative = inhibition values for the records listed here.
Assay method text: qHTS Assay for Lipid Storage Modulators (AID 1519); further: on the % scale 0 is the no-effect control and ±100 the full control effect
Run parameters: Drosophila S3 cells, BODIPY lipid droplet/cell ratio, laser cytometry; at 57.5 µM (top of the series); cells loaded with oleic acid
Records with an inconclusive call do not appear.
Your answer is read as %, so omit the unit and give the number.

Look at this compound and give its reported activity change, negative = inhibition. `CCCN=C(N)NCCC[C@H](N)C(=O)O` -1.86

Repeat with `O=C(O)[C@H]1CCCNC1` -2.39

How about this compound: `C[C@]12CC3CC(N)(C1)C[C@@](C)(C3)C2` -0.0594

Same question, `N[C@]1(C(=O)O)CCc2cc(P(=O)(O)O)ccc21` this time -2.38

// next record `CCCCCC(=O)O[C@H](CC(=O)O)C[N+](C)(C)C` 1.82

Try this compound too: N[C@H](C(=O)O)C1[C@H](C(=O)O)[C@H]1C(=O)O (some centres not stated) 1.13

Query `CC(C)C[C@H](NC(=O)N1CCCCCC1)C(=O)N[C@H](Cc1cn(C)c2ccccc12)C(=O)N[C@H](Cc1ccccn1)C(=O)O` next -4.14

Ok, now `CCCCCCCCCCCCCCCC(=O)C(F)(F)F` 2.39

Quick one: `CCNCCCNCCCCNCCCNCC` 2.21

Request: `O[C@@H](c1ccccc1)C1CCN(CCc2ccccc2)CC1` 3

What do you have for `Cc1cccc(/C=C/c2ccccc2)n1` ? 1.78

Next entry: `CCCN(CCC)C[C@@H]1CCCCN1CCNC(=O)N1c2ccccc2C(=O)Nc2cccnc21` -0.0589

Note, next up: `O=C(O)c1c2ccccc2cc2ccccc12` 8.27

Now consider C[C@H](CCC(=O)O)[C@H]1CC[C@H]2[C@H]3C(CC[C@]12C)[C@@]1(C)CC[C@@H](O)C[C@H]1C[C@H]3O (some centres not stated) and answer again. -7.53

Entry `CC1(C)CO[C@H](CC(=O)O)CN1` please -3

And `OC[C@@H]1O[C@@H](n2cnc3c(N[C@H]4CCC[C@@H]4O)ncnc32)[C@H](O)[C@H]1O` ? 3.72

Record: `N[C@@H](C(=O)O)[C@H](CC(=O)O)c1ccc(Cl)cc1` -4.76

Field entry: `N[C@@]1(C(=O)O)CN[C@H](C(=O)O)C1` -1.74

And what about the compound `c1ncc(CC2CCNCC2)[nH]1` ? 0.0288

What do you get for `CC(C)NC[C@@H](O)COc1cccc2[nH]ccc12` ? 6.23

What do we get for `COc1cc(N)c(Cl)cc1C(=O)CCC1CCN(CCNS(C)(=O)=O)CC1` ? 6.39

Try `NC1(C(=O)O)CCC1` next. 3.54

----------
Test system: Chromobox protein homolog 1 (Homo sapiens)
Assay method text: qHTS Validation Assay for Inhibitors of HP1-beta Chromodomain Interactions with Methylated Histone Tails (AID 488953); further: nearly all actives have a fitted effect of over 50% in size
Run parameters: HP1-beta chromodomain / methylated histone peptide binding assay; series mostly up to 114 µM
Inconclusive results are not listed. Activity calls are given as the source filed them. Calls come from the whole dose curve; as a rule, active = well fitted inhibition curve with a large enough effect; inconclusive = small, poorly fitted or top-dose-only effect; inactive = no such curve, though single readings can be large or run the other way.
Choose the fitting class; nothing outside y (active), n (inactive) is accepted.

Look up the recorded call for `CC[N+](CC)(CC)CC` in this test. n

Same question for `C1CCC(N=C(NC23CC4CC(CC(C4)C2)C3)N2CCOCC2)CC1` please. n

Record: `N.N.O=C(O)C1(C(=O)O)CCC1.[Pt+2]` y

Can you check `O=C1c2ccccc2C(=O)c2c(NCCc3ccc(O)cc3)ccc(NCCc3ccc(O)cc3)c21` next? y

Please give the result for Oc1cc2c(c(Cl)c1O)CCNCC2c1ccccc1 (centres undefined) too. n

Try this molecule too: `N#C/C(=C\c1ccc(O)c(O)c1)C(=O)Nc1ccccc1` y

Now the molecule `O=Nc1c(-c2c(O)[nH]c3ccccc23)[nH]c2ccccc12` y

Also need `Cc1cccc(/C=C/c2ccccc2)n1` , thanks. n

Check `CCc1ccc(/C=C2/SC(=S)NC2=O)cc1` too. y

----------
System: Zika virus NS2B-NS3 protease
Assay method text: Primary screen GU AMC qHTS for Zika virus inhibitors (AID 1347154);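 further: 0% = no-inhibitor control and -100% = no-enzyme control; nearly all actives have a fitted effect of over 70% in size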
Run parameters: Zika NS2B-NS3 unlinked protease, AMC fluorogenic substrate; series mostly up to 54.1 µM
Records with an inconclusive call do not appear. Active and inactive are the calls of the source. Calls come from the whole dose curve; as a rule, active = well fitted inhibition curve with a large enough effect; inconclusive = small, poorly fitted or top-dose-only effect; inactive = flat fitted curve, though single readings scatter.
Assay metric: activity change, negative = inhibition

Use the examples below as a reference point.
>>> recorded_result("Cc1c(-c2ccc(Cl)cc2)noc1C1CCN(CCc2ccccc2)CC1")
"inactive"
>>> recorded_result("Cc1c(C(=O)NN2CCOCC2)nn(-c2ccc(Cl)cc2Cl)c1-c1ccc(I)cc1")
"inactive"
>>> recorded_result("CC1OC(OC2C(CO)OC(OC3C(CO)OC(O)C(O)C3O)C(O)C2O)C(O)C(O)C1NC1C=C(CO)C(O)C(O)C1O (configuration not stated)")
"inactive"
>>> recorded_result("CC(C)c1cc(/C=C(\\C#N)C(=O)NCCCc2ccccc2)cc(C(C)C)c1O")
"inactive"
>>> recorded_result("C/C(O)=C1\\C(=O)[C@@H]2[C@H]3c4c[nH]c5cccc(c45)C[C@H]3C(C)(C)N2C1=O")
"inactive"
>>> recorded_result("CC(C)C[C@H](NC(=O)N1CCCCCC1)C(=O)N[C@H](Cc1cn(C)c2ccccc12)C(=O)N[C@H](Cc1ccccn1)C(=O)O")
"inactive"
>>> recorded_result("COc1ccc2[nH]cc(CC(N)C(=O)O)c2c1 (configuration not stated)")
"inactive"
>>> recorded_result("O=C(O)C(Cc1ccc2c(c1)oc1ccccc12)NCP(=O)(O)O (configuration not stated)")
"inactive"

Would you kindly share the measured activity change, negative = inhibition for O=c1ncccn1[C@@H]1O[C@H](CO)C(O)[C@@H]1O (some centres not stated) ? inactive

What would you report for C[N+]1(Cc2ccccc2)CCC(C(=O)OCC2CCCC2)CC1 (configuration not stated) ? inactive

And C=C[C@H]1CN2CCC1C[C@@H]2C(O)c1ccnc2ccc(OC)cc12 (some centres not stated) ? inactive

----------
Assay method text: qHTS for activators of Nrf2/ARE signaling pathway screened against the NCATS CANVASS Library (AID 1347391); further: nearly all actives have a fitted effect of over 60% in size; on activation: 0% is about no effect
Run parameters: ARE-bla HepG2, beta-lactamase reporter, 16 h; series mostly up to 46.1 µM
Inconclusive results are not listed. Active and inactive are the calls of the source. Calls follow the shape of the dose curve; as a rule, active = well fitted activation curve with a large enough effect; inconclusive = small, poorly fitted or top-dose-only effect; inactive = no such curve, though single readings can be large or run the other way.
Permitted responses: 1 (yes) = active, 0 (no) = inactive

Per the assay record, what outcome was assigned to `CCCCCCCCCCCCCCC[C@H](O)C[C@@H](O)C[C@@H](O)C[C@@H](O)C[C@@H](O)C[C@H]1CC=CC(=O)O1` ? 0 (no)

Do the same for `C/C=C/C(=O)[C@@H](C)C1=CC(=O)C2=C(O[C@@]34CC[C@H](O)C(C)(C)[C@@H]3CC[C@H](C)[C@@]4(C)C2)C1=O` please 1 (yes)

Next: `O=Cc1ccc2n1C[C@@]1(OC2)O[C@H](CO)[C@@H](O)[C@@H]1O` 0 (no)

Continue with `O=C(O)[C@@]12CO[C@@]3(O)C4CCN(CC[C@H]31)[C@H]4c1c2[nH]c2ccccc12` 0 (no)

How about this molecule: `CC1=CC[C@@]2(C[C@@H]1O)[C@@H](C(=O)O)CC[C@H]2C(C)C` 0 (no)

Repeat for the following molecule: CC1(C)CCC[C@]2(C)[C@@H]1CC[C@@]13C[C@@H](CC[C@H]12)C(C)(O)C3 (stereo partly specified) 0 (no)

Consider next the molecule `CO[C@@H]1C[C@@H](C[C@H]2CC[C@H](C)[C@H]([C@@H](C)C(=O)O)O2)O[C@]2(O[C@](C)([C@H]3CC[C@@](C)([C@@H]4O[C@@H]([C@H]5O[C@](C)(O)[C@H](C)C[C@@H]5C)C[C@@H]4C)O3)C[C@H]2C)[C@@H]1C` in the same way. 0 (no)

Proceed to `CCCCCC[C@H](CCCCC[C@@H](O)C(N)=O)OC(=O)[C@@H]1CC=CN1C(=O)c1ccccc1O` 0 (no)

Consider next the molecule C=CC(=C)CC[C@]1(C)[C@H]2C[C@H](OC(=O)C(C)CC)C=C3[C@H](OC(C)=O)O[C@H](OC(C)=O)[C@@]32[C@H](OC)C[C@@H]1C (stereo partly specified) in the same way. 0 (no)

What do you get for `C=CC(C)(C)C(=O)[C@@H](C)[C@@H]1CC[C@](C)(C=C)O1` ? 0 (no)

Entry CO[C@@H]1[C@H](O)[C@@H](C)O[C@@H](OC[C@H]2/C=C/C=C/C(=O)C(C)C[C@H](C)C(O[C@@H]3O[C@H](C)CC4(OC(=O)O[C@@H]4C)C3O)[C@@H](C)/C=C/C(=O)OC2C)[C@@H]1OC (stereo partly specified) please 1 (yes)

Let us now turn to `C[C@@]12CCC[C@@](C)(C(=O)O)[C@H]1CC[C@]13C[C@H]4C[C@H](O[C@@]4(C)C1)[C@H]32` 0 (no)

Also CN1C(=O)C2C(N=CN2C)N(C)C1=O (stereo unspecified) , if possible. 0 (no)

Input `CC(C)=CCC[C@@H](C)[C@@H]1CC[C@@]2(C)C[C@H]3C(C)=CC(=O)[C@@H]3/C(C=O)=C\C[C@H]12` 0 (no)

How about this molecule: `CS/C=C/C(N)=O` 0 (no)

Same for `O=Cc1ccc2n1C[C@@]1(C[C@H](O)[C@H](O)CO1)OC2` 0 (no)
